# Tested on: Septoria tritici
# test: Leaf blotch of wheat (SEPTTR) disease control on wheat seedlings
# Assay type: in vivo, Mycosphaerella graminicola (anamorph Septoria tritici)
# protocol_conditions: Zymoseptoria tritici, 72 h, 3DC (3 Day Curative), 121.5 g/H, low volume (track spray) application, read-out: SEPTTR disease control rating (% Control)
readout_name: pest or weed control at 121.5 g/ha

smiles_data	experimental_system	readout_name	result
COc1ccnc(C(=O)N[C@H]2COC[C@H](OCC3CC3)[C@@H](Cc3ccccc3)[C@H](C)OC2=O)c1OCOC(C)=O	Septoria tritici	pest or weed control at 121.5 g/ha	> 70%
CCCO[C@H]1COC[C@H](NC(=O)c2nccc(OC)c2OCOC(C)=O)C(=O)O[C@@H](C)[C@@H]1Cc1ccc(F)cc1	Septoria tritici	pest or weed control at 121.5 g/ha	> 70%
COc1ccnc(C(=O)N[C@H]2COC[C@H](OCC3CC3)[C@@H](Cc3ccc(F)cc3)[C@H](C)OC2=O)c1OCOC(C)=O	Septoria tritici	pest or weed control at 121.5 g/ha	> 70%

----------
Listed here: items and their measured pest or weed control at 100 ppm.
# Tested on: Septoria tritici
# test: Leaf blotch of wheat (SEPTTR) disease control on wheat seedlings
# Assay type: in vivo, Mycosphaerella graminicola (anamorph Septoria tritici)
# protocol_conditions: Zymoseptoria tritici, 72 h, 3DC (3 Day Curative), 100 ppm, high volume application, read-out: SEPTTR disease control rating (% Control)
# Description: Evaluation of Fungicidal Activity: Leaf Blotch of Wheat (Mycosphaerella graminicola; Anamorph: Septoria tritici; Bayer Code […]) Technical grades of materials were dissolved in acetone, which were then mixed with nine volumes of water containing 110 ppm Triton X-100. […] All fungicides were evaluated using the aforementioned method for their activity vs. all target diseases. […] Percent disease control was calculated using the ratio of disease severity on treated plants relative to untreated plants.
readout_name: pest or weed control at 100 ppm

smiles_data	experimental_system	result
COc1ccnc(C(=O)N[C@H]2COC[C@H](OCC(C)C)[C@@H](Cc3ccccc3)[C@H](C)OC2=O)c1OCOC(C)=O	Septoria tritici	> 70%
COc1ccnc(C(=O)N[C@H]2COC[C@H](OCc3ccccc3)[C@@H](Cc3ccc(F)cc3)[C@H](C)OC2=O)c1O	Septoria tritici	> 70%
CCCC[C@H]1[C@H](C)OC(=O)[C@@H](NC(=O)c2nccc(OC)c2O)COC[C@@H]1OCC1CC1	Septoria tritici	< 70%
CCCC[C@H]1[C@H](C)OC(=O)[C@@H](NC(=O)c2nccc(OC)c2O)COC[C@@H]1Oc1ccccc1	Septoria tritici	< 70%
COc1ccnc(C(=O)N[C@H]2COC[C@H](OC(=O)C3CC3)[C@@H](Cc3ccc(F)cc3)[C@H](C)OC2=O)c1O	Septoria tritici	> 70%
CCCO[C@H]1COC[C@H](NC(=O)c2nccc(OC)c2O)C(=O)O[C@@H](C)[C@@H]1CCC(C)C	Septoria tritici	< 70%
CCCC[C@H]1[C@H](C)OC(=O)[C@@H](NC(=O)c2nccc(OC)c2O)COC[C@@H]1OCc1ccccc1	Septoria tritici	> 70%

----------
# Tested on: Septoria tritici
# test: Leaf blotch of wheat (SEPTTR) disease control on wheat seedlings
# Assay type: in vivo, Mycosphaerella graminicola (anamorph Septoria tritici)
# protocol_conditions: Zymoseptoria tritici, 24 h, 1DP (1 Day Protectant), 100 ppm, high volume application, read-out: SEPTTR disease control rating (% Control)

smiles_data	pest or weed control at 100 ppm
COc1ccnc(C(=O)N[C@H]2COC[C@H](OC(=O)C3CC3)[C@@H](Cc3ccc(F)cc3)[C@H](C)OC2=O)c1O	> 70%
CCCC[C@H]1[C@H](C)OC(=O)[C@@H](NC(=O)c2nccc(OC)c2O)COC[C@@H]1Oc1ccccc1	> 70%
CCOCC(=O)OCOc1c(OC)ccnc1C(=O)N[C@H]1COC[C@H](OCOCc2ccccc2)[C@@H](Cc2ccccc2)[C@H](C)OC1=O	> 70%
CCCO[C@H]1COC[C@H](NC(=O)c2nccc(OC)c2O)C(=O)O[C@@H](C)[C@@H]1CCC(C)C	< 70%
COc1ccnc(C(=O)N[C@H]2COC[C@H](OCC3CC3)[C@@H](Cc3ccccc3)[C@H](C)OC2=O)c1OC(C)=O	> 70%
CCCO[C@H]1COC[C@H](NC(=O)c2nccc(OC)c2O)C(=O)O[C@@H](C)[C@@H]1Cc1ccc(F)cc1	> 70%
COc1ccnc(C(=O)N[C@H]2COC[C@H](OCc3ccccc3)[C@@H](CCC(C)C)[C@H](C)OC2=O)c1O	> 70%
COc1ccnc(C(=O)N[C@H]2COC[C@H](OCC3CC3)[C@@H](Cc3ccccc3)[C@H](C)OC2=O)c1OCOC(C)=O	> 70%
COc1ccnc(C(=O)N[C@H]2COC[C@H](OCC3CC3)[C@@H](Cc3ccc(F)cc3)[C@H](C)OC2=O)c1O	> 70%
COc1ccnc(C(=O)N[C@H]2COC[C@H](OCOCc3ccccc3)[C@@H](Cc3ccccc3)[C@H](C)OC2=O)c1O	< 70%
COc1ccnc(C(=O)N[C@H]2COC[C@H](OCc3ccccc3)[C@@H](Cc3ccc(F)cc3)[C@H](C)OC2=O)c1O	> 70%
COc1ccnc(C(=O)N[C@H]2COC[C@H](OCC3CC3)[C@@H](Cc3ccccc3)[C@H](C)OC2=O)c1O	> 70%
CCCC[C@H]1[C@H](C)OC(=O)[C@@H](NC(=O)c2nccc(OC)c2O)COC[C@@H]1OC(=O)C(C)C	< 70%
CCCC[C@H]1[C@H](C)OC(=O)[C@@H](NC(=O)c2nccc(OC)c2O)COC[C@@H]1OCCCC(F)(F)F	> 70%

Origin of measurements: patent US9549556B2
